subject.of.test: Streptavidin (Streptomyces avidinii)
assay.protocol: streptavidin binders on small-molecule microarray, primary screen, artefact control for SMM compound annotation, biophysical, 635/667 nm fluorescence (AID 1147);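 also: signal reflects streptavidin binding to arrayed compounds as a control protein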
experimental.conditions: streptavidin binding, higher = more signal
Reported composite z-score values are given for each entry in this list.
I'd appreciate a reply containing only the number, no unit.

# count of solved cases: 5
compound=[N-]=[N+]=NCc1ccccc1[C@H]1OC(c2ccc(OCCCO)cc2)=N[C@@]1(CCS(=O)(=O)c1ccccc1)C(N)=O readout_type="composite z-score" reported=1.8
compound=C[C@H]1ON(c2ccc(C(=O)OC(C)(C)C)cc2)[C@@H](c2ccc(O)cc2)[C@@H]1C(=O)N1C(=O)OC[C@@H]1c1ccccc1 readout_type="composite z-score" reported=0.179
compound="O=C1NC(=O)C2C1C=CC(C(O)c1cc(C(F)(F)F)cc(C(F)(F)F)c1)N2Nc1ccc(Cl)cc1Cl (stereo unspecified)" readout_type="composite z-score" reported=0.416
compound=COCCOC(=O)N1C(=O)[C@@]2(c3cc(C#CCC(C(=O)OC)C(=O)OC)ccc31)[C@H](c1ccc(OCCO)cc1)N1[C@H](c3ccccc3)[C@H](c3ccccc3)OC(=O)[C@H]1[C@@H]2C(=O)N1CCN(c2ncccn2)CC1 readout_type="composite z-score" reported=0.945
compound=O=C(O)[C@H](Cc1ccccc1)n1cc(-c2ccccn2)nn1 readout_type="composite z-score" reported=0.303

q: # query: composite z-score of entry CC(C)(C)OC(=O)CC[C@@]1(C(=O)O)N=C(c2ccc(OCCCO)cc2)O[C@@H]1c1ccccc1CN=[N+]=[N-]
a: 0.725

q: Try this compound too: COC(=O)[C@]1(CCS(=O)(=O)c2ccccc2)N=C(c2ccc(OCCCO)cc2)O[C@@H]1c1ccccc1CN=[N+]=[N-]
a: 0.379

q: Try this compound too: COCCOC(=O)N1C(=O)[C@@]2(c3cc(C#Cc4ccc(OC)cc4)ccc31)[C@H](C(=O)NC[C@H](O)c1ccccc1)[C@H]1C(=O)O[C@H](c3ccccc3)[C@H](c3ccccc3)N1[C@@H]2c1ccc(O)cc1
a: 0.582

q: Try this compound too: Cc1ccc(S[C@]2(C(=O)NCCN3CCOCC3)CC(=O)N(Cc3ccccc3C(F)(F)F)[C@@H]2c2ccc(CO)cc2I)cc1
a: -1.49

q: Try this compound too: O=C1C2C=CC(C(O)c3cc(C(F)(F)F)cc(C(F)(F)F)c3)N(Nc3ccc([N+](=O)[O-])cc3)C2C(=O)N1c1ccccc1 (stereo unspecified)
a: 1.02

q: Try this compound too: C=CCC(OC(C)=O)[C@@H]1[C@@H](N(Cc2ccc(-c3ccccc3)cc2)C(=O)c2cccc3ccccc23)c2cc(OCCCO)ccc2N1C(=O)Cc1ccc2ccccc2c1 (stereo partly specified)
a: -0.0695

q: Try this compound too: C[N+](C)(C)CCCC[C@@H]1NC(=O)[C@@H]2C[C@H](C(=O)O)[C@H](c3ccc(O)cc3)N2C1=O
a: -1.08

q: Try this compound too: C=C(C(=O)CC[C@H](OC(C)=O)c1cccc(OCCO)c1)C(C)C
a: -0.608

q: Try this compound too: C=CCOC(=O)[C@H]1[C@@H]2C(=O)O[C@@H](c3ccccc3)[C@@H](c3ccccc3)N2[C@@H](c2ccc(OCCOC(=O)[C@H]3C[C@H]4C(=O)N[C@@H](Cc5ccccc5)C(=O)N4[C@H]3c3ccc(O)cc3)cc2)[C@]12C(=O)Nc1ccc(I)cc12
a: 0.133

q: Try this compound too: CO[C@H]1O[C@H](CO)[C@@H](OC(=O)Nc2ccc(C(F)(F)F)cc2)[C@H](OC(=O)Nc2ccc3c(c2)OCO3)[C@H]1OC(=O)Nc1ccc2c(c1)OCO2
a: 0.656

q: Try this compound too: CCOC(=O)C[C@H]1[C@H](OC(=O)c2ccccc2-c2ccccc2)[C@@H](NC(=O)CC(C)C)c2cc(OCCCO)ccc2N1C(=O)c1ccc2ccccc2n1
a: 0.543

q: Try this compound too: COc1c(C)cc(-c2cc3c(c(Cc4ccccc4)n2)[Si](C(C)C)(C(C)C)OC3)cc1C
a: 0.169

q: Try this compound too: COc1ccc([Si](C)(C)[C@@H]2[C@@H](CCn3cc([C@H](O)c4ccccc4)nn3)O[C@]3(C(=O)N(Cc4ccc(N5CCOC5=O)cc4)c4ccccc43)[C@H]2C)cc1
a: 0.204

q: Try this compound too: O=C1O[C@@H](c2ccccc2)[C@@H](c2ccccc2)N2[C@@H](c3ccc(O)cc3)[C@]3(C(=O)Nc4ccc(C#CCCO)cc43)[C@@H](C(=O)NC[C@H](O)c3ccccc3)[C@H]12
a: -0.791

q: Try this compound too: C=C(COC)/C(=C/C[C@@H](OC(=O)c1ccncc1)c1cccc(OCCO)c1)c1cnc2ccccc2c1
a: 2.64

q: Try this compound too: O=C1O[C@@H](c2ccccc2)[C@@H](c2ccccc2)N2[C@@H](c3ccc(O)cc3)[C@]3(C(=O)Nc4ccc(C#CCCO)cc43)[C@@H](C(=O)Nc3nc4ccccc4s3)[C@H]12
a: 0.103

q: Try this compound too: COCCCNC(=O)[C@@]1(Sc2ccc(C)cc2)CC(=O)N(C2Cc3ccccc3C2)[C@@H]1c1ccc(CO)cc1I
a: -0.962

meta.source: PubChem BioAssay
